- measured-target: Death-associated protein kinase 3 (Homo sapiens) (UniProt O43293)
- Sequence (O43293 whole entry, looked up): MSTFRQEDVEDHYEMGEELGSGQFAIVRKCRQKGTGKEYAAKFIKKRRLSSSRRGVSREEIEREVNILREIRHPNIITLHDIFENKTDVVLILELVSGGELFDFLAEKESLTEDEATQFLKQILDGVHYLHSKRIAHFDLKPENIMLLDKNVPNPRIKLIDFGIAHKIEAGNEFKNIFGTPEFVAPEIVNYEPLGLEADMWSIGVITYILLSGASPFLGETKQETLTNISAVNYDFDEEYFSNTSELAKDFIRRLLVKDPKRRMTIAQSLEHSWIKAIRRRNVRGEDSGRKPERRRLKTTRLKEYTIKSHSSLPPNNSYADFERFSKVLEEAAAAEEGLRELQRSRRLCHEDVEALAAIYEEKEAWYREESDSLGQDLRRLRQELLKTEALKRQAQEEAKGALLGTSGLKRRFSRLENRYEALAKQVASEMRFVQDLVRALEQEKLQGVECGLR
- particulars: at 1 µM
Entry flag: true (1) if residual activity reaches 90%; false (0) if it does not.

Q: Please check the record Cn1sc(=O)n(Cc2ccccc2)c1=O and state if its residual activity is at or above 90%.
Result: false (0)

Q: Okay, and Nc1n[nH]c2nc3ccccc3nc12 ?
Result: true (1)

Q: Okay, and O=C(Nc1nc2ccccc2n1CCN1CCOCC1)c1cccc([N+](=O)[O-])c1 ?
Result: false (0)

Q: Okay, and Nc1ncnc2c1c(-c1ccc(Oc3ccccc3)cc1)cn2C1CCCC1 ?
Result: true (1)

Q: Okay, and COc1cc2nccc(Oc3ccc(NC(=O)Nc4cc(C)on4)c(Cl)c3)c2cc1OC ?
Result: false (0)

Q: Okay, and O=C1NC(=O)C(c2cn(CCCO)c3ncccc23)=C1c1cnccn1 ?
Result: true (1)

Q: Okay, and NC(=O)Nc1sc(-c2ccc(F)cc2)cc1C(N)=O ?
Result: false (0)

Q: Okay, and O=C(NC(NC(=S)Nc1ccc(F)c([N+](=O)[O-])c1)C(Cl)(Cl)Cl)C(c1ccccc1)c1ccccc1 (stereo unspecified) ?
Result: true (1)

Q: Okay, and O=C1NC(=O)c2c1c1c3ccccc3[nH]c1n1cncc21 ?
Result: false (0)
